target: D(4) dopamine receptor (Homo sapiens, UniProt P21917); assay: Activity at human recombinant D4.4 receptor expressed in HEK293 cells by FLIPR assay
Each item that follows carries a reported EC50.
Provide only the numeric value, understood in nM.

Illustrative cases are given below, each with its answer.
CO/N=C(\CCN1CCN(c2ccccn2)CC1)c1ccc(Cl)c(Cl)c1: 542
CCO/N=C(\CCN1CCN(c2nccs2)CC1)c1ccccc1: 81.8
CCO/N=C(\CCN1CCN(c2ccccn2)CC1)c1ccccc1: 28.5
CCO/N=C(\CCN1CCN(c2ccccc2)CC1)c1ccccc1: 109
CO/N=C(/CCN1CCN(c2ccccn2)CC1)c1ccc(Cl)c(Cl)c1: 341

# ---- query molecule ----
[in] Report EC50 for CO/N=C(/CCN1CCC(c2cccc[n+]2[O-])CC1)c1ccc(Cl)cc1
[out] 46.4

* * *

assay: Half life in rat at 1 mg/kg, po; type: ADME, organism-based; set-up: dose 1 mg/kg, route oral; conditions: in vivo
measuredQuantity: half-life (h)
Provide only the numeric value, understood in h.

[in] Report half-life for CO/N=C(\CCN1CCN(c2ccccn2)CC1)c1ccc(Cl)cc1
[out] 2.3

* * *

Target: D(4) dopamine receptor (Homo sapiens, UniProt P21917)
Sequence (P21917 whole entry): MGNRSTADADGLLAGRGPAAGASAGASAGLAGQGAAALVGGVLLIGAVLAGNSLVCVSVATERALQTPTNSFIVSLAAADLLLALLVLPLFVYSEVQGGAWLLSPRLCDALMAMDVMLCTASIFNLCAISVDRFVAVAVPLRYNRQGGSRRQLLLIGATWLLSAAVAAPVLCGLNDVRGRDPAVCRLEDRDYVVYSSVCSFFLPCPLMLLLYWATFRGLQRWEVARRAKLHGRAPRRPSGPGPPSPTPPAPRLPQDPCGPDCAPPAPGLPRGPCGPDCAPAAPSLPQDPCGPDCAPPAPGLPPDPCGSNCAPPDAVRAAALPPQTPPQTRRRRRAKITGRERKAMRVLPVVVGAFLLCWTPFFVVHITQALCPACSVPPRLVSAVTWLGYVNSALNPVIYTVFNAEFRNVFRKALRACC
Experiment: Activity at human recombinant D4.4 receptor expressed in HEK293 cells by FLIPR assay
Each item that follows carries a reported pEC50.
Scale: pEC50 equals -log10([C]), with [C] in mol/L.

CO/N=C(\CCN1CCN(c2ccccn2)CC1)c1ccc(Cl)cc1Cl: 6.60

[in] Report pEC50 for N#Cc1cccnc1N1CCN(CC/C(=N\O)c2ccccc2)CC1
[out] 7.74

[in] Report pEC50 for CO/N=C(/CCN1CCN(c2ccccn2)CC1)c1ccc(Cl)cc1Cl
[out] 6.53

[in] Report pEC50 for CO/N=C(\CCCN1CCN(c2ccccn2)CC1)c1ccc(F)cc1
[out] 7.38

[in] Report pEC50 for CO/N=C(/CCN1CCN(c2ccccn2)CC1)c1cc(C)cc(C)c1
[out] 7.13

[in] Report pEC50 for CO/N=C(/c1cccnc1)C(O)CN1CCN(c2ccccn2)CC1 (stereo unspecified)
[out] 6.91

[in] Report pEC50 for C=CCO/N=C(\CCN1CCN(c2ccccn2)CC1)c1ccccc1
[out] 6.46

[in] Report pEC50 for CO/N=C(\CCN1CCN(c2ccccn2)CC1)c1cc(C)cc(C)c1
[out] 6.76

[in] Report pEC50 for CO/N=C(\CCN1CCN(c2ccccn2)CC1)c1ccc(F)cc1
[out] 7.31

[in] Report pEC50 for O/N=C(\CCN1CCN(c2ccccn2)CC1)c1cccc(F)c1
[out] 7.77

* * *

assay: Half life in rat at 1 mg/kg, sc; assay type: ADME, organism-based; parameters: dose 1 mg/kg, route subcutaneous; conditions: in vivo
measuredQuantity: half-life (h)
Provide only the numeric value, understood in h.

CO/N=C(\CCN1CCN(c2ccccn2)CC1)c1ccc(Cl)cc1: 1.9

# ---- query molecule ----
[in] Report half-life for O/N=C(\CCN1CCN(c2ccccn2)CC1)c1ccccc1
[out] 0.8

* * *

target: D(2) dopamine receptor (Homo sapiens, UniProt P14416); assay: Displacement of [125I]PIPAT from human recombinant D2L receptor expressed in HEK293 cells
Sequence (P14416 whole entry): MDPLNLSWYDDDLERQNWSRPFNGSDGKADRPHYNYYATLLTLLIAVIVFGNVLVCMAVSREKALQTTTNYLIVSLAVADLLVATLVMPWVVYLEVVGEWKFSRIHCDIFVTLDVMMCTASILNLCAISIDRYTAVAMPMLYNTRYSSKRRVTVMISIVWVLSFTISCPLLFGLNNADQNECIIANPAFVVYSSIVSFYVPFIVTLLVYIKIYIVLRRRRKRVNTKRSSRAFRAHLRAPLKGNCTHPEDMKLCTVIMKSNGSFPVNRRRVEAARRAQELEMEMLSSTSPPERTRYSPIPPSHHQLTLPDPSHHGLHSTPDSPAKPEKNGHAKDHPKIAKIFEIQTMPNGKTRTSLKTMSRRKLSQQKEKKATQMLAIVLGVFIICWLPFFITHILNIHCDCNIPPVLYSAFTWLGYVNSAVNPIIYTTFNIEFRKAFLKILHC
measuredQuantity: Ki (nM)
Provide only the numeric value, understood in nM.

Illustrative cases are given below, each with its answer.
CO/N=C(/CCN1CCN(c2ccccn2)CC1)c1cccnc1: 1820
CO/N=C(/c1ccc(Cl)cc1)C(O)CN1CCN(c2ccccn2)CC1 (configuration not stated): 368
CO/N=C(/CCN1CCC(c2ccccn2)CC1)c1ccc(Cl)cc1: 19.4
CO/N=C(/CCN1CCN(c2ccccn2)CC1)c1cccc(F)c1: 46.6
CO/N=C(\CCN1CCN(c2ccccn2)CC1)c1ccccc1C: 112
CO/N=C(/CCN1CCN(c2ccccn2)CC1)c1cccc(C#N)c1: 125

# ---- query compound ----
[in] Please respond with reported Ki (system D(2) dopamine receptor (Homo sapiens, UniProt P14416)) for CCO/N=C(\CCN1CCN(c2ccccn2)CC1)c1ccccc1 .
[out] 128

* * *

molecular target: D(4) dopamine receptor (Homo sapiens, UniProt P21917); test: Activity at human recombinant D4.4 receptor expressed in HEK293 cells by FLIPR assay
One threshold, 60 nM, splits the recorded EC50 values: lower ones are YES, equal or higher ones are NO.

// known answers, use as guide
CO/N=C(/CN1CCN(c2ccccn2)CC1)c1ccc(F)cc1: NO
CO/N=C(/CCN1CCN(c2ccccn2)CC1)c1ccc(Cl)cc1: YES
CO/N=C(/c1ccc(Cl)cc1)C(CNOC)CN1CCN(c2ccccn2)CC1 (stereo unspecified): NO

[in] # strict comparison: is reported EC50 < 60 nM? input = CO/N=C(/CCN1CCN(c2ccccn2)CC1)c1ccccc1C
[out] YES

[in] # strict comparison: is reported EC50 < 60 nM? input = O/N=C(\CCN1CCN(c2ccccn2)CC1)c1ccc(Cl)cc1
[out] NO

* * *

target: D(2) dopamine receptor (Homo sapiens, UniProt P14416); assay: Antagonist activity at human recombinant D2 receptor expressed in HEK293 cells by FLIPR assay
measuredQuantity: IC50

CCO/N=C(\CCN1CCN(c2ncccc2C)CC1)c1ccccc1: > 10 µM

[in] Report IC50 for O/N=C(/CCCN1CCN(c2ccccn2)CC1)c1ccc(F)cc1
[out] > 10 µM

[in] Report IC50 for CO/N=C(/CCN1CCN(c2ccccn2)CC1C)c1ccc(Cl)cc1 (stereo not drawn)
[out] > 10 µM

* * *

molecular target: D(2) dopamine receptor (Homo sapiens); assay: Displacement of [125I]PIPAT from human recombinant D2L receptor expressed in HEK293 cells
pKi: −log10 of the molar value.
Label 1 (yes) when pKi is at or above 7; otherwise label 0 (no).

// known answers, use as guide
CO/N=C(\CCN1CCN(c2ccccn2)CC1)c1ccccc1: 0 (no)
CO/N=C(/CCN1CCN(c2ccccn2)CC1)c1ccc(F)cc1: 0 (no)
CO/N=C(\CN1CCN(c2ccccn2)CC1)c1ccc(F)cc1: 0 (no)
CCO/N=C(\CCN1CCN(c2nccs2)CC1)c1ccccc1: 0 (no)
CO/N=C(\CCN1CCN(c2ccccn2)CC1)c1ccc(F)cc1: 0 (no)

[in] Textbook exercise: given the entry CO/N=C(/CCN1CCN(c2ccccn2)CC1)c1ccc(Cl)c(C)c1 , state whether its pKi is greater than or equal to 7.
[out] 1 (yes)

[in] Textbook exercise: given the entry CO/N=C(\c1ccc(Cl)cc1)C(O)CN1CCN(c2ccccn2)CC1 (stereo not drawn) , state whether its pKi is greater than or equal to 7.
[out] 0 (no)

[in] Textbook exercise: given the entry O/N=C(\CCN1CCN(c2ccccn2)CC1)c1ccccc1 , state whether its pKi is greater than or equal to 7.
[out] 0 (no)

[in] Textbook exercise: given the entry CO/N=C(\CCN1CCN(c2ccccn2)CC1)c1ccc(F)c(Cl)c1 , state whether its pKi is greater than or equal to 7.
[out] 0 (no)

[in] Textbook exercise: given the entry CO/N=C(\CCN1CCC(c2ccccn2)CC1)c1ccc(Cl)cc1 , state whether its pKi is greater than or equal to 7.
[out] 1 (yes)

[in] Textbook exercise: given the entry CO/N=C(/CCN1CCN(c2ccccn2)CC1)c1cc(F)cc(F)c1 , state whether its pKi is greater than or equal to 7.
[out] 0 (no)

* * *

target: D(4) dopamine receptor (Homo sapiens); assay: Activity at human recombinant D4.4 receptor expressed in HEK293 cells by FLIPR assay
measuredQuantity: EC50 (µM)
Provide only the numeric value, understood in µM.

Illustrative cases are given below, each with its answer.
CO/N=C(/CCN1CCN(c2ccccn2)CC1)c1cccc(C)c1: 0.061
CO/N=C(\CCN1CCN(c2ccccn2)CC1)c1ccc(Br)cc1: 0.183
CO/N=C(/CCN1CCN(c2ccccn2)CC1)c1cc(F)cc(F)c1: 0.0467
Cc1cccc(/C(=N\O)C(O)CN2CCN(c3ccccn3)CC2)c1 (configuration not stated): 0.0448
O/N=C(/CCCN1CCN(c2ccccn2)CC1)c1ccc(F)cc1: 0.0593

[in] Report EC50 for CCO/N=C(\CCN1CCN(c2ncccc2C)CC1)c1ccccc1
[out] 0.253

[in] Report EC50 for CO/N=C(/CCN1CCN(c2ccccn2)CC1)c1cccnc1
[out] 0.0333

[in] Report EC50 for N#Cc1cccnc1N1CCN(CC/C(=N/O)c2ccccc2)CC1
[out] 0.02

[in] Report EC50 for O/N=C(\CCN1CCN(c2ccccn2)CC1)c1ccccc1
[out] 0.0044

[in] Report EC50 for CO/N=C(\CN1CCN(c2ccccn2)CC1)c1ccc(F)cc1
[out] 0.0438

[in] Report EC50 for CO/N=C(/CCN1CCN(c2ccccn2)CC1)c1ccc(F)cc1
[out] 0.0136

[in] Report EC50 for CO/N=C(\CCN1CCCC(c2ccccn2)C1)c1ccc(Cl)cc1 (configuration not stated)
[out] 0.606

Every entry's value here was drawn from ChEMBL document CHEMBL1145336.
